B1: SERPINB5 (parent)
chain: FPESETKECPFRVNKVCGAACSSK

Variants of: B1
Assay protocol: protein stability index of a GFP-peptide fusion (GPS, HEK-293T) (PSI 1-6); higher = more stable;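 note: lentivirally expressed fusions sorted by FACS into six bins by GFP to DsRed ratio, PSI derived from sequencing read proportions per bin multiplied by bin number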
Condition parameters: c terminus: a fixed tail appended
Property measured: protein stability index

> print(dat)
   variant.spec  result
1          R12M    2.86
2           S4A    2.46
3          N14E    3.29
